# system_under_test: endogenous CETP from serum (Homo sapiens, UniProt P11597)
# Construct: yielding a concentration of approximately 15 nM endogenous CETP in the assay; from tissue; host or cells: human serum
# Sequence (P11597 18-493): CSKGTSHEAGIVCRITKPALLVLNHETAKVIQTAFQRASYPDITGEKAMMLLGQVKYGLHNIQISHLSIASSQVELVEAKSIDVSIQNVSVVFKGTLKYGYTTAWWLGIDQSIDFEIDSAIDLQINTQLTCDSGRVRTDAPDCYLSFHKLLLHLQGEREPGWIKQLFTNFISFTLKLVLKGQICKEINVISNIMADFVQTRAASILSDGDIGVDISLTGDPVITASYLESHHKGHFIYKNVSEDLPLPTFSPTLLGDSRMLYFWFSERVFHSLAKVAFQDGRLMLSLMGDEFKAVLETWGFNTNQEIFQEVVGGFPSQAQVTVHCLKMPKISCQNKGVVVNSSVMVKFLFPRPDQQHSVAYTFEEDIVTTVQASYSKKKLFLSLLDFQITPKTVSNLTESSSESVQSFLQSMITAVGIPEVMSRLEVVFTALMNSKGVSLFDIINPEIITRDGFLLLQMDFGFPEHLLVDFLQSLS
# assay_explanation: RTA assay in 95% human serum (CETP-catalyzed CE and TG transfer, endogenous CETP from serum)
# Format: biochemical
# reported_conditions: read-out: IC50
# Experimental: In Vitro Radioactive Assays of CETP-Catalyzed CE and TG Transfer (RTA Assay) Reagents and sources are: [3H] cholesteryl oleate (GE #TRK.886), [3H] Triolein (Perkin-Elmer NET-431), Butylated hydroxyl toluene (Aldrich, #D4740-4), DOPC (Sigma, # P6354), Sodium Bromide (Fisher scientific #S255-500), PEG 8000 (Fisher, #BP233-1), and human HDL (Intracel Corp #RP-036). […] Transfer assays are performed in a 96-well v-bottom polypropylene plate. […] After mixing, plates are counted by liquid scintillation. […]
Hi there, I'd appreciate the recorded IC50 for every entry that follows.
Answers without a unit are incomplete; give the number and then its unit.

Consider the compound COc1ncc(-c2ccc(C(=O)O)cc2C)cc1-c1ccc(C(F)(F)F)nc1CN1C(=O)S[C@H](c2cc(C(F)(F)F)cc(C(F)(F)F)c2)[C@@H]1C and give its recorded IC50.
106 nM

Consider the compound COc1ccc([C@H]2CC[C@H](C(=O)O)CC2)cc1-c1ccc(C(F)(F)F)nc1CN1C(=O)S[C@H](c2cc(C(F)(F)F)cc(C(F)(F)F)c2)[C@@H]1C and give its recorded IC50.
257 nM

Continuing:
Consider the compound COc1ccc(CCC(=O)O)cc1-c1ccc(C(F)(F)F)nc1CN1C(=O)S[C@H](c2cc(C(F)(F)F)cc(C(F)(F)F)c2)[C@@H]1C and give its recorded IC50.
300 nM

Every entry's value here was drawn from patent US9376408B2.
